test: NCI Yeast Anticancer Drug Screen. Data for the cln2 rad14 strain (AID 165);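 further: 0% = growth equal to vehicle treated cultures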; details: S. cerevisiae cln2 rad14 strain, at 50.0 µM (retest, dose inferred, filed as 5.0), stronger effect = higher value
The panel holds about 79,000 compounds, 15% with a hit somewhere; the sample as a whole holds those more often. Where a SMILES comes first, the peptide text is derived from it. The star is where a group is joined. Cbz = O=C(OCc1ccccc1)*; CH2Cl = ClC*
Returns rule met if the recorded growth inhibition is greater than or equal to 90%, and rule not met otherwise.

{"MOLECULE": "CN(C)c1ccc(C2(Cl)c3ccccc3N(Cc3ccccc3)c3ccccc32)cc1", "CLASS": "rule met"}
{"MOLECULE": "C=C1CC(Cn2cc(C)c(=O)[nH]c2=O)(c2ccc(Cl)cc2)OC1=O (stereo not given)", "CLASS": "rule not met"}
{"MOLECULE": "NC(=Nc1cc2ccccc2c2ccccc12)Nc1cc2ccccc2c2ccccc12", "CLASS": "rule met"}
{"MOLECULE": "CCCCN1CCN(c2ccc([N+](=O)[O-])c3no[n+]([O-])c23)CC1", "CLASS": "rule met"}
{"MOLECULE": "CCOC(=O)C(=O)C1CCCCC1=O (stereo not given)", "CLASS": "rule met"}
{"MOLECULE": "Cc1ccc(S(=O)(=O)OC(C=O)C(O)C(O)COC(c2ccccc2)(c2ccccc2)c2ccccc2)cc1 (stereo not given)", "CLASS": "rule met"}
{"MOLECULE": "C/C(=C/C(=O)/C=C/c1ccccc1)c1c(C)[nH]c2ccccc12", "CLASS": "rule not met"}
{"MOLECULE": "CC(C)C1COC(c2ccc3ccccc3c2-c2c(O[Si](C)(C)C(C)(C)C)ccc3ccccc23)=N1 (stereo not given)", "CLASS": "rule not met"}
{"MOLECULE": "CC(C)CC(NC(=O)OCc1ccccc1)C(=O)NC(Cc1ccccc1)C(=O)CCl (stereo not drawn) (Cbz-Leu-Phe-CH2Cl; configuration not given here)", "CLASS": "rule not met"}

###

Let's look at some compounds and their measured growth inhibition.
test: NCI Yeast Anticancer Drug Screen. Data for the mlh1 rad18 strain (AID 175); conditions: S. cerevisiae mlh1 rad18 strain growth inhibition; at 50.0 µM (retest, dose inferred, filed as 5.0); stronger effect = higher value
The panel holds about 79,000 compounds, 15% with a hit somewhere; the sample as a whole holds those more often.

{"COMPOUND": "CCOC(=O)Cc1[nH]c(C(=O)c2ccccc2)cc1C(=O)c1ccccc1", "RESULT_UNITS": "%", "growth inhibition": 89}
{"COMPOUND": "Oc1ccc(Cc2ccccc2)cc1Cl", "RESULT_UNITS": "%", "growth inhibition": 85}
{"COMPOUND": "C/C=C(\\CCC1NCCc2c1[nH]c1ccccc21)[Si](C)(C)C (centres undefined)", "RESULT_UNITS": "%", "growth inhibition": 100}
{"COMPOUND": "CCCCC(CC)COC(=O)c1cc2ccccc2oc1=O (centres undefined)", "RESULT_UNITS": "%", "growth inhibition": 19}
{"COMPOUND": "O=S1(=O)c2ccccc2C(=NO)c2ccccc21", "RESULT_UNITS": "%", "growth inhibition": -21}
{"COMPOUND": "O=C1OC(CCl)CC12CC(CCl)OC2=O (centres undefined)", "RESULT_UNITS": "%", "growth inhibition": 0}
{"COMPOUND": "Oc1ccccc1C(c1cc2c(cc1O)OCO2)N1CCOCC1 (centres undefined)", "RESULT_UNITS": "%", "growth inhibition": 99}
{"COMPOUND": "CCCCCCCCNc1ncnc2c1cnn2C", "RESULT_UNITS": "%", "growth inhibition": 86}
{"COMPOUND": "CCc1nc(N)nc(N)c1-c1ccc(NCCc2ccccc2)c([N+](=O)[O-])c1", "RESULT_UNITS": "%", "growth inhibition": 19}
{"COMPOUND": "CCC1=CCC2C(=O)c3cc4ccccc4cc3C(=O)C2C1 (centres undefined)", "RESULT_UNITS": "%", "growth inhibition": 46}
{"COMPOUND": "O=c1cc2cccccc-2cc1O", "RESULT_UNITS": "%", "growth inhibition": 95}
{"COMPOUND": "CCCCCCC(Sc1n[nH]c(=O)[nH]c1=O)C(=O)OCC (centres undefined)", "RESULT_UNITS": "%", "growth inhibition": 89}
{"COMPOUND": "O=Nc1c(-c2c[nH]c3ccccc23)[nH]c2ccccc12", "RESULT_UNITS": "%", "growth inhibition": 53}
{"COMPOUND": "CCCCC/C(=C/C=C/c1ccc(Cl)cc1)CN(C)C", "RESULT_UNITS": "%", "growth inhibition": 97}
{"COMPOUND": "Oc1ccc(N=Nc2ccc(Cl)cc2)cc1O", "RESULT_UNITS": "%", "growth inhibition": 98}
{"COMPOUND": "O=[N+]([O-])c1c(O)cccc1O", "RESULT_UNITS": "%", "growth inhibition": 99}
{"COMPOUND": "Cc1cccc[c]1[Sn]([Cl])([O][Sn]([Cl])([c]1ccccc1C)[c]1ccccc1C)[c]1ccccc1C", "RESULT_UNITS": "%", "growth inhibition": 96}
{"COMPOUND": "C=C(Br)CN(C)CC(=C)Br", "RESULT_UNITS": "%", "growth inhibition": 25}
{"COMPOUND": "CCC(=NCCCCCCN=C(CC)c1cc(C)cc([N+](=O)[O-])c1O)c1cc(C)cc([N+](=O)[O-])c1O.[Fe]", "RESULT_UNITS": "%", "growth inhibition": 63}
{"COMPOUND": "O=C(CC1(O)CCCCC1)OC1CCCC1", "RESULT_UNITS": "%", "growth inhibition": 10}
{"COMPOUND": "S=C(NC(=S)Nc1ccccc1)Nc1ccccc1", "RESULT_UNITS": "%", "growth inhibition": 55}
{"COMPOUND": "O=[N+]([O-])c1ccc(CCCCc2ccc([N+](=O)[O-])cc2)cc1", "RESULT_UNITS": "%", "growth inhibition": -16}
{"COMPOUND": "Cc1cc(N(CCOS(C)(=O)=O)CCOS(C)(=O)=O)ccc1C=Nc1cccc(Cl)c1", "RESULT_UNITS": "%", "growth inhibition": 92}
{"COMPOUND": "CCOC(=O)C(C)(C)Oc1ccc2c(=O)cc(-c3ccccc3)oc2c1", "RESULT_UNITS": "%", "growth inhibition": 94}
{"COMPOUND": "Cc1ccc(C(=O)/C=C/c2ccccc2)cc1", "RESULT_UNITS": "%", "growth inhibition": 24}
{"COMPOUND": "O=C1NC(=S)S/C1=C\\c1cc(Cl)ccc1O", "RESULT_UNITS": "%", "growth inhibition": -6}
{"COMPOUND": "CCCCCCC(O)(CCCCCC)CCCCCC", "RESULT_UNITS": "%", "growth inhibition": -31}
{"COMPOUND": "O=c1[nH]cnc2nc(I)[nH]c12", "RESULT_UNITS": "%", "growth inhibition": -5}
{"COMPOUND": "Nc1nn2c(C(Br)Br)cc(C(Br)Br)nc2c1[N+](=O)[O-]", "RESULT_UNITS": "%", "growth inhibition": 100}
{"COMPOUND": "CC1=CC(=O)C=C(Br)C1=O", "RESULT_UNITS": "%", "growth inhibition": 99}
{"COMPOUND": "Cc1ccc(NC(=O)Cc2nc3ccccc3s2)c(C)c1", "RESULT_UNITS": "%", "growth inhibition": 99}
{"COMPOUND": "CC(=O)c1cccc(NC(=O)C(=O)NNc2n[nH]c(=S)n2N)c1", "RESULT_UNITS": "%", "growth inhibition": 94}
{"COMPOUND": "CC(=O)c1ccc2sc3ccccc3c2c1", "RESULT_UNITS": "%", "growth inhibition": 92}
{"COMPOUND": "N#CC(c1ccc(Cl)cc1)c1ccc([N+](=O)[O-])cc1 (centres undefined)", "RESULT_UNITS": "%", "growth inhibition": 88}
{"COMPOUND": "ICCCCSc1cc(-c2ccccc2)[o+]c2ccccc12", "RESULT_UNITS": "%", "growth inhibition": 71}
{"COMPOUND": "Oc1cc(F)ccc1-c1ccc(F)cc1", "RESULT_UNITS": "%", "growth inhibition": 98}
{"COMPOUND": "CC(=O)N1C=C2CCC3c4ccccc4NC3C2CC1 (centres undefined)", "RESULT_UNITS": "%", "growth inhibition": -2}
{"COMPOUND": "O=C(Nc1ncnc2c1ncn2C1CC(O)C(CO)O1)c1ccccc1 (centres undefined)", "RESULT_UNITS": "%", "growth inhibition": 4}
{"COMPOUND": "COc1cc(C/C(=C/c2ccc(OC)c3occc23)[N+](=O)[O-])cc(OC)c1OC", "RESULT_UNITS": "%", "growth inhibition": 100}
{"COMPOUND": "Nc1ncc(C(=O)c2ccccc2)cc1[N+](=O)[O-]", "RESULT_UNITS": "%", "growth inhibition": -87}
{"COMPOUND": "CS(=O)(=O)OCCN(CCOS(C)(=O)=O)c1ccc(C=Nc2ccc3ccccc3c2)c(Cl)c1", "RESULT_UNITS": "%", "growth inhibition": 34}
{"COMPOUND": "CC(C)C1=CC23CCC4C(C)(C(=O)O)CCCC4(C)C2CC1C1C(=O)C=CC(=O)C13 (centres undefined)", "RESULT_UNITS": "%", "growth inhibition": 97}
{"COMPOUND": "CC(=O)C1(C(C)=O)C2=C(C(=O)C(Cl)=C(Cl)C2=O)N2C=CC=CC21 (centres undefined)", "RESULT_UNITS": "%", "growth inhibition": 96}
{"COMPOUND": "CC1C=CC(C)C2C(=O)C3C(C)C=CC(C)C3C(=O)C12 (centres undefined)", "RESULT_UNITS": "%", "growth inhibition": -7}
{"COMPOUND": "CC(CO)(CO)Cc1ccccc1", "RESULT_UNITS": "%", "growth inhibition": -3}
{"COMPOUND": "O=C(O)C1(Cc2ccc3c(c2)CCC3)Cc2cc3c(cc2C1)CCC3", "RESULT_UNITS": "%", "growth inhibition": 14}
{"COMPOUND": "O=C(Cc1nc2ccccc2s1)C(=O)Nc1ccc(Cl)cc1", "RESULT_UNITS": "%", "growth inhibition": 7}
{"COMPOUND": "O=C1OC(c2ccc(O)cc2)=C(c2ccccc2)C1c1ccccc1 (centres undefined)", "RESULT_UNITS": "%", "growth inhibition": 67}
{"COMPOUND": "CC(C)(N)COB(c1ccccc1)c1ccccc1", "RESULT_UNITS": "%", "growth inhibition": 99}

Entry source: PubChem BioAssay (NCI)
